Values from patent US7786141B2

- system-under-test: M1 muscarinic receptor (Homo sapiens, UniProt P11229)
- Construct: expressed in transfected cells; host or cells: CHO (M1-CHO)
- Sequence (P11229 whole entry): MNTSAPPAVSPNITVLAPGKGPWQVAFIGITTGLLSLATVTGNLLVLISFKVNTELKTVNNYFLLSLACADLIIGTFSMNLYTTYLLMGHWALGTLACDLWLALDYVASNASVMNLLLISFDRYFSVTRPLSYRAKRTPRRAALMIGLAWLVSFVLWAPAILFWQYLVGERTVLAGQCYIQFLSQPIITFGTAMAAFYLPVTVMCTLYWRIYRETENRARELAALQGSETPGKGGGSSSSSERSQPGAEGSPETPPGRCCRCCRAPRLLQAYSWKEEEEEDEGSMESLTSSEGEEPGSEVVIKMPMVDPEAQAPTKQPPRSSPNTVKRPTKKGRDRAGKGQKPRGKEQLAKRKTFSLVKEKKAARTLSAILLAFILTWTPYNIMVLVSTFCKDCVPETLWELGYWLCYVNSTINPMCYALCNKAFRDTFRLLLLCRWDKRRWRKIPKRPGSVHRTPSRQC
- experiment-notes: Functional mobilization of intracellular calcium (FLIPR) in M1-CHO cells
- Assay type: cell-based
- particulars: M1 receptor, calcium mobilization; read-out: M1 Efficacy
measured-metric: Emax

compound: CC(=O)N[C@H]1CC2(CCN(CC3CC4CCC3CC4)CC2)c2ccccc21 (stereo partly shown) [compound 29]
observed-result: > 85%
--
compound: CC(=O)N1CC2(CCN(C3CC4CCC3C4)CC2)c2cc(C)ccc21 (stereo not shown) [compound 138]
observed-result: 65 to 85%
--
compound: CCOC(=O)N1CCC(N2CCC3(CC2)CN(C(=O)OCC(C)(C)C)c2ccc(F)cc23)CC1 [compound 63]
observed-result: < 65%
--
compound: Fc1ccc2c(c1)C1(CCN(CC3CC4C=CC3C4)CC1)CN2 (stereo not shown) [compound 183]
observed-result: 65 to 85%

====

- system-under-test: M4 muscarinic receptor (Homo sapiens, UniProt P08173)
- Construct: expressed in transfected cells; host or cells: CHO (M4-CHO)
- experiment-notes: Functional mobilization of intracellular calcium (FLIPR) in M4-CHO cells
- Format: cell-based
- particulars: Table 4; 100% efficacy is the maximum response obtained with the Carbachol control
Some molecules, each annotated with its measured Emax.

molecule: CCOC(=O)N1C2CCC1CC(N1CCC3(CC[C@H](NS(C)(=O)=O)c4ccccc43)CC1)C2 (some centres unmarked)
Emax: 25 to 100%
//
molecule: CC(=O)N[C@H]1CC2(CCN(CC3CC4CCC3C4)C2)c2ccc(F)cc21 (some centres unmarked)
Emax: 25 to 100%
//
molecule: O=C(N[C@H]1CCC2(CCN(C3CCCCCC3)CC2)c2ccccc21)C1CC1
Emax: 25 to 100%
//
molecule: COC(=O)N1CCCC(CCN2CCC3(CCC(NC(C)=O)c4ccccc43)CC2)C1 (centres unmarked)
Emax: < 25%
//
molecule: CCOC(=O)N1CCC(N2CCC3(CC2)CN(C(C)=O)c2cccc(C)c23)CC1
Emax: < 25%
//
molecule: Cc1ccc2c(c1)C1(CCN(C3CC4CCC3C4)CC1)CN2C(=O)c1ccccc1 (centres unmarked)
Emax: < 25%
//
molecule: COc1ccc(C(=O)N2CCC(N3CCC4(CC3)CN(C(=O)N(C)C)c3ccc(F)cc34)CC2)cc1
Emax: < 25%
//
molecule: C#CCOC(=O)N1CC[C@@H](CN2CCC3(CC2)CN(C(C)=O)c2cccc(C)c23)C1
Emax: 25 to 100%

====

- system-under-test: M4 muscarinic receptor (Homo sapiens, UniProt P08173)
- Construct: expressed in transfected cells; host or cells: CHO (M4-CHO)
- Sequence (P08173 1-479): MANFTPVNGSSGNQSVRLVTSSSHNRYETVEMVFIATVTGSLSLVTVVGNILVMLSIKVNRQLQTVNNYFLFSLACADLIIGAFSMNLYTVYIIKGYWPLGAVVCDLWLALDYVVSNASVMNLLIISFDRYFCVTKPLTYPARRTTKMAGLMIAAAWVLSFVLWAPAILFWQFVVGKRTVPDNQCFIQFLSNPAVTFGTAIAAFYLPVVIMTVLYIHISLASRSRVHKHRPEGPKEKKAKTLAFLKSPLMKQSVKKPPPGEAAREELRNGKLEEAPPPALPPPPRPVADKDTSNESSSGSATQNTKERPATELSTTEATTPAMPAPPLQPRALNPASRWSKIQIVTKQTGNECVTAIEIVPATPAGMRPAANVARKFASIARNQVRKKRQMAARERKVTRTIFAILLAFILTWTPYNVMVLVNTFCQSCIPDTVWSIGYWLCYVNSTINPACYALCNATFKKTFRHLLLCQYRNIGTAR
- experiment-notes: Functional mobilization of intracellular calcium (FLIPR) in M4-CHO cells
- Type: cell-based
- particulars: Table 4; 100% efficacy is the maximum response obtained with the Carbachol control

molecule: CCCN1CC2(CCN(C[C@H]3C[C@H]4C=CC3C4)CC2)c2cc(F)ccc21
Emax: 25 to 100%
//
molecule: CC(=O)N[C@H]1CCC2(CCN(CCC3CCCCC3)CC2)c2ccccc21
Emax: < 25%
//
molecule: CCCCc1cncc(N2CCC(N3CCC4(CC3)CN(C(C)=O)c3ccccc34)CC2)n1
Emax: < 25%
//
molecule: CCOC(=O)N1CCC(N2CCC3(CC2)CN(C(C)=O)c2c(C)cc(C)cc23)CC1
Emax: 25 to 100%
//
molecule: CCOC(=O)N1C2CCC1CC(N1CCC3(CC[C@H](NC(C)=O)c4ccccc43)CC1)C2 (stereo partly shown)
Emax: 25 to 100%
//
molecule: CCOC(=O)N1CCC(N2CCC3(CC2)CN(C(C)=O)c2ccc(Br)cc23)CC1
Emax: 25 to 100%
//
molecule: CC(=O)N[C@H]1CCC2(CCN(C[C@@H]3C[C@H]4C=C[C@H]3C4)CC2)c2ccccc21
Emax: 25 to 100%
//
molecule: CCOC(=O)N1CCC(N2CCC3(CCCc4ccccc43)CC2)CC1
Emax: 25 to 100%
//
molecule: CC(=O)NC1CCC2(CCN(CCC3CCCN(C(=O)OC(C)C)C3)CC2)c2ccccc21 (stereo not shown)
Emax: < 25%
//
molecule: CCOC(=O)N1CCC(N2CCC3(CC(=O)c4cc(F)ccc43)C2)CC1 (stereo not shown)
Emax: < 25%
//
molecule: COCCN1CC2(CCN(C3CCCCCC3)CC2)c2cc(F)ccc21
Emax: 25 to 100%
//
molecule: CN(C)C(=O)N1CC2(CCN(C3CCN(c4ccc(F)cc4)CC3)CC2)c2cc(F)ccc21
Emax: < 25%
//
molecule: CCOC(=O)N1CC[C@@H](CN2CCC3(CC2)CN(C(C)=O)c2cccc(C)c23)C1
Emax: 25 to 100%
//
molecule: O=C(O)C1CC2(CCN(C3CC4CCC3C4)CC2)c2ccccc21 (stereo not shown)
Emax: < 25%
//
molecule: CC(=O)NC1CCC2(CCN(CCC3CCCN(C(=O)N(C)C)C3)CC2)c2ccccc21 (stereo not shown)
Emax: < 25%
//
molecule: C/C=C/C(=O)N1CC2(CCN(C3CCN(C(=O)OCC)CC3)CC2)c2cc(F)ccc21
Emax: 25 to 100%
//
molecule: CCOC(=O)N1CCC(N2CCC3(CC2)CN(C(C)=O)c2c(-c4ccc(C(C)=O)cc4)cccc23)CC1
Emax: < 25%
//
molecule: CCOC(=O)N1CCC(N2CCC3(CC2)CN(c2ccsc2)c2ccc(F)cc23)CC1
Emax: 25 to 100%
//
molecule: CN(C)C(=O)N1CC2(CCN(C3CCN(C(=O)C4CC4)CC3)CC2)c2cc(F)ccc21
Emax: 25 to 100%
//
molecule: COCCOC(=O)N1CC[C@@H](CN2CCC3(CC2)CN(C(C)=O)c2ccccc23)C1
Emax: < 25%
//
molecule: CCOC(=O)N1CCC(N2CCC3(CC2)CN(C(=O)N(CC)CC)c2ccccc23)CC1
Emax: 25 to 100%
//
molecule: COC(=O)N1CC[C@@H](CN2CCC3(CC2)CN(C(C)=O)c2ccccc23)C1
Emax: 25 to 100%
//
molecule: CCC(C)(C)C1CCC(N2CCC3(CC2)CN(C(C)=O)c2ccc(F)cc23)CC1 (stereo not shown)
Emax: < 25%
//
molecule: CCOC(=O)N1C2CCC1CC(N1CCC3(CC[C@H](N4CCCC4=O)c4ccccc43)CC1)C2 (stereo partly shown)
Emax: 25 to 100%
//
molecule: Cc1ccc2c(c1)C(=O)CC21CCN(CC2C[C@H]3C=C[C@H]2C3)CC1 (stereo partly shown)
Emax: 25 to 100%
//
molecule: CC(=O)N1CC2(CCN(C3CCN(c4ncc(C)s4)CC3)CC2)c2ccccc21
Emax: < 25%
//
molecule: CC(=O)N[C@@H]1CCC2(CCN([C@@H]3C[C@H]4CC[C@@H]3C4)CC2)c2ccccc21
Emax: 25 to 100%
//
molecule: CCOC(=O)N1CCC(N2CCC3(CC2)CN(C(C)=O)c2c(-c4ccc(OC)cc4)cccc23)CC1
Emax: 25 to 100%
//
molecule: CCOC(=O)N1CCC(N2CCC3(CC2)CN(c2cccc(OC)c2)c2ccc(F)cc23)CC1
Emax: 25 to 100%
//
molecule: CCOC(=O)N1C2CCC1CC(N1CCC3(CC[C@@H](NC(C)=O)c4ccccc43)CC1)C2 (stereo partly shown)
Emax: 25 to 100%
//
molecule: c1ccc2c(c1)CCCC21CCN(C2C[C@@H]3CC[C@@H](C2)C3)CC1 (stereo partly shown)
Emax: 25 to 100%

====

- system-under-test: M4 muscarinic receptor (Homo sapiens, UniProt P08173)
- Construct: expressed in transfected cells; host or cells: CHO (M4-CHO)
- experiment-notes: Functional mobilization of intracellular calcium (FLIPR) in M4-CHO cells
- Format: cell-based
- particulars: Table 4; 100% efficacy is the maximum response obtained with the Carbachol control
Below, each of the compounds is paired with its reported Emax value.

compound: CN(C)C(=O)NC1CCC2(CCN(CC3CC4C=CC3C4)CC2)c2ccccc21 (centres unmarked)
Emax: 25 to 100%
--
compound: C#CCOC(=O)N1CCC(N2CCC3(CC2)CN(C(C)=O)c2cccc(C)c23)CC1
Emax: < 25%
--
compound: CN(C)C(=O)N1CC2(CCN(C3CCN(c4ccccc4F)CC3)CC2)c2cc(F)ccc21
Emax: < 25%
--
compound: CC(=O)N[C@H]1CC2(CCN(CC(=O)N3CCOCC3)CC2)c2ccccc21
Emax: < 25%
--
compound: O=C(N[C@H]1CC2(CCN(C3CCCCC3)CC2)c2ccccc21)N1CCCC1
Emax: < 25%
--
compound: CC(=O)N[C@H]1CCC2(CCN(CCC3CCCN(C(=O)OC(C)(C)C)C3)CC2)c2ccccc21 (some centres unmarked)
Emax: < 25%
--
compound: CS(=O)(=O)N[C@H]1CCC2(CCN(CC3CCCCC3)CC2)c2ccccc21
Emax: 25 to 100%
--
compound: CC(=O)CN1CC2(CCN(C3CC4CCC(C4)C3)CC2)c2cc(F)ccc21 (centres unmarked)
Emax: 25 to 100%
--
compound: O=C(O)C1CC2(CCN(C3CCCC3)CC2)c2ccccc21 (centres unmarked)
Emax: < 25%
--
compound: Fc1ccc2c(c1)C1(CCN(C3CC4CCC3O4)CC1)CN2 (centres unmarked)
Emax: < 25%
--
compound: CC(=O)N1CC2(CCN(C3CCN(C(C)C)CC3)CC2)c2cc(F)ccc21
Emax: < 25%
--
compound: O=C1CCCN1[C@H]1CCC2(CCN([C@H]3CC4CC[C@H](C4)C3)CC2)c2ccccc21
Emax: 25 to 100%
--
compound: CCOC(=O)N1CCC(N2CCC3(CC2)CN(C(C)=O)c2c(-c4ccccc4C)cccc23)CC1
Emax: < 25%
--
compound: CC(=O)NC1CCC2(CCN(CCC3CCN(C(=O)N(C)C)CC3)CC2)c2ccccc21 (centres unmarked)
Emax: < 25%
--
compound: CC#CCOC(=O)N1CCC(N2CCC3(CC2)CN(C(C)=O)c2cccc(C)c23)CC1
Emax: < 25%
--
compound: CCOC(=O)N1CCC(CN2CCC3(CC2)CN(C(C)=O)c2ccc(S(C)(=O)=O)cc23)CC1
Emax: < 25%
--
compound: CCOC(=O)N1CCC(N2CCC3(CC2)CN(C(C)=O)c2c(-c4ccccc4F)cccc23)CC1
Emax: < 25%
